Reference source: ChEMBL document CHEMBL5058564

System: HEK-293T
experimentalDetails: Incucyte cell viability with HEK293T; also: unitless GR value; below 1 slowed growth and below 0 cell loss
Assay type: toxicity, cell-based
experimentalConditions: human, 0 h, 10 µM, compound concentration 10 uM, replicate number 1, timepoint 0 hours
*1 amine or outer side, *2 acyl side, *3 side chain or, on linkers, in order; H or OH if unused. Where a SMILES comes first, the peptide text is derived from it. Bridges are numbered along the chain shown (N, C = ends). X1 = O=C(CCC[*:2])[*:1]
Listed here: items and their measured Growth Rate.
Answer with the value's number alone.

// known answers, use as guide
compound	Growth Rate
CC(C)c1cc(-c2ccc(F)c3ccccc23)nc(N)n1	0.46
C[N+]1(C)[C@@H]2C[C@@H](OC(=O)C(O)(c3cccs3)c3cccs3)C[C@H]1[C@@H]1O[C@@H]12.O.[Br-] [TIOTROPIUM BROMIDE]	0.54
CN(C)C(=O)Cn1cc(-c2ccc(-c3nnc4ccccn34)cc2)cn1	0.69

Read the entry `O=C(Nc1cc(C(F)(F)F)ccc1N1CCN(Cc2ccccn2)CC1)c1ccc(-c2ccncc2)o1` and write its reported Growth Rate. 0.95

Read the entry `Br.Br.c1ncc(CC2CCNCC2)[nH]1` and write its reported Growth Rate. 0.53

Read the entry CC[C@H](C)[C@@H]1NC(=O)[C@H](Cc2ccc(OC)cc2)NC(=O)CCCSC[C@@H](C(=O)N2CCC[C@H]2C(=O)N[C@@H](CC(C)C)C(=O)NCC(N)=O)NC(=O)[C@H](CC(N)=O)NC(=O)[C@H](CCC(N)=O)NC1=O [CARBETOCIN] (Y(Me)IQNCPLG-NH2; linker N-5 via X1) and write its reported Growth Rate. 0.31

Read the entry CNC(=O)[C@H]1O[C@@H](n2cnc3c(NCc4cccc(I)c4)ncnc32)[C@H](O)[C@@H]1O [IB-MECA] and write its reported Growth Rate. 0.11

###

Test system: HEK-293T
experimentalDetails: Incucyte cell viability with HEK293T; also: unitless GR value; below 1 slowed growth and below 0 cell loss
Type: toxicity, cell-based
experimentalConditions: human, 24 h, 10 µM, compound concentration 10 uM, replicate number 2, timepoint 24 hours
*1 amine or outer side, *2 acyl side, *3 side chain or, on linkers, in order; H or OH if unused. Where a SMILES comes first, the peptide text is derived from it. Bridges are numbered along the chain shown (N, C = ends). X1 = O=C(CCC[*:2])[*:1]
measurementType: Growth Rate
Answer with the value's number alone.

molecule	reportedValue
CC[C@H](C)[C@@H]1NC(=O)[C@H](Cc2ccc(OC)cc2)NC(=O)CCCSC[C@@H](C(=O)N2CCC[C@H]2C(=O)N[C@@H](CC(C)C)C(=O)NCC(N)=O)NC(=O)[C@H](CC(N)=O)NC(=O)[C@H](CCC(N)=O)NC1=O [CARBETOCIN] (Y(Me)IQNCPLG-NH2; linker N-5 via X1)	0.92
CN1CCN(c2ccc(Nc3c4ccccc4nc4ccccc34)cc2)CC1.Cl.Cl.O	-0.52
CCCCOCCOc1nc(-c2ccc(C(=O)O)c(F)c2)sc1C	0.69

Read the entry `COc1cc2c(Oc3ccc(NC(=O)C4(C(=O)Nc5ccc(F)cc5)CC4)cc3F)ccnc2cc1OCCCN1CCOCC1` and write its reported Growth Rate. -0.7

Read the entry `Cc1cc(C)cc([C@@H]2c3cc(C)ccc3NC(=O)CN2C(=O)c2ccc(Br)s2)c1` and write its reported Growth Rate. 0.7

Read the entry CO/C1=C/C(C)=C\[C@@H](C)[C@@H](O)[C@@H](C)C/C(C)=C\C=C/[C@H](OC)C([C@@H](C)[C@@H](O)[C@H](C)[C@@]2(O)C[C@@H](O)[C@H](C)[C@@H](C(C)C)O2)OC1=O (stereo partly specified) and write its reported Growth Rate. -0.38

###

System: HEK-293T
experimentalDetails: Incucyte cell viability with HEK293T; also: unitless GR value; below 1 slowed growth and below 0 cell loss
Format: toxicity, cell-based
experimentalConditions: human, 0 h, 10 µM, compound concentration 10 uM, replicate number 2, timepoint 0 hours
measurementType: Growth Rate
Answer with the value's number alone.

Read the entry C[N+]1(C)[C@@H]2C[C@@H](OC(=O)C(O)(c3cccs3)c3cccs3)C[C@H]1[C@@H]1O[C@@H]12.O.[Br-] [TIOTROPIUM BROMIDE] and write its reported Growth Rate. -0.14

Read the entry `CCCn1c(=O)c2[nH]c(-c3ccc(OCC(=O)Nc4ccc(C#N)cc4)cc3)nc2n(CCC)c1=O` and write its reported Growth Rate. 0.64

Read the entry CCc1ccccc1C(=O)Nc1n[nH]c2c(C)c(F)c(C3C(C#N)=C(C)N(C)C(C)=C3C#N)cc12 [BAY-3827] and write its reported Growth Rate. -1

Read the entry CN[C@@H]1C[C@H]2O[C@@](C)([C@@H]1OC)n1c3ccccc3c3c4c(c5c6ccccc6n2c5c31)C(=O)NC4 [STAUROSPORINE] and write its reported Growth Rate. -0.46

Read the entry CC1(COc2ccc3c(c2)ncn3-c2ccc3cccc(N4CCC(N)CC4)c3n2)COC1 [CRENOLANIB] and write its reported Growth Rate. -0.11

Read the entry COc1cc(NC(=O)CCN2CCC(OC(=O)Nc3ccccc3-c3ccccc3)CC2)c(Cl)cc1CNC[C@H](O)c1ccc(O)c2[nH]c(=O)ccc12 [BATEFENTEROL] and write its reported Growth Rate. 0.01

Read the entry `CNc1nc(NCc2ncccn2)c2c(-c3ccc4ncccc4c3)c[nH]c2n1` and write its reported Growth Rate. 0.76

Read the entry CC(C)(C)c1ccc(CSc2cnn(C(C)(C)C)c(=O)c2Cl)cc1 [PYRIDABEN] and write its reported Growth Rate. 0.94

Read the entry `CN1CCC(c2c[nH]c3ccc(O)cc23)CC1` and write its reported Growth Rate. 0.25

Read the entry CCC(=O)OCC(=O)[C@@]1(OC(=O)CC)[C@@H](C)C[C@H]2[C@@H]3CCC4=CC(=O)C=C[C@]4(C)[C@@]3(Cl)[C@@H](O)C[C@@]21C [BECLOMETHASONE DIPROPIONATE] and write its reported Growth Rate. -0.33

Read the entry OC[C@H]1O[C@@H](n2cnc3c(NC4CCCC4)ncnc32)[C@H](O)[C@@H]1O [N6-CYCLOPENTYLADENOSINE] and write its reported Growth Rate. -0.14

Read the entry `CC1=C(C)C(=O)C(C(C)(C)CC(=O)N(CCCCSC[C@H]2O[C@@H](n3cnc4c(N)ncnc43)[C@H](O)[C@@H]2O)Cc2cccc(-c3ccc(Cl)cc3)c2)=C(C)C1=O` and write its reported Growth Rate. -1

Read the entry `CSCC[C@H](NC(=O)[C@@H]1CCCN1C(=O)CNC(=O)[C@H](CCCCN)NC(=O)[C@H](Cc1cnc[nH]1)NC(=O)[C@H](CO)NC(=O)[C@H](CC(C)C)NC(=O)[C@H](CCCNC(=N)N)NC(=O)[C@@H]1CCCN1C(=O)[C@H](CCCNC(=N)N)NC(=O)[C@@H](N)CCC(N)=O)C(=O)N1CCC[C@H]1C(=O)N[C@@H](Cc1ccccc1)C(=O)O` and write its reported Growth Rate. 0.65

###

Listed here: items and their measured Growth Rate.
Test system: HEK-293T
experimentalDetails: Incucyte cell viability with HEK293T; also: unitless GR value; below 1 slowed growth and below 0 cell loss
Type: toxicity, cell-based
experimentalConditions: human, 18 h, 10 µM, compound concentration 10 uM, replicate number 2, timepoint 18 hours
Answer with the value's number alone.

compound	Growth Rate
C[C@@H](OC[C@@]1(c2ccccc2)CC[C@]2(CCC(=O)N2)CN1)c1cc(C(F)(F)F)cc(C(F)(F)F)c1	0.81

Read the entry `CN(C)C(=O)N1CC[C@H](NC2=Nc3cc(F)ccc3N(CC(F)F)c3ccc(Cl)cc32)C1` and write its reported Growth Rate. 0.79

Read the entry Cc1ccccc1C(=O)Nc1ccc(C(=O)N2CCCC(N(C)C)c3ccccc32)cc1.Cl (centres undefined) and write its reported Growth Rate. 0.08

Read the entry `Cc1cc(C)cc([C@H]2c3cc(C)ccc3NC(=O)CN2C(=O)c2ccc(Br)s2)c1` and write its reported Growth Rate. 0.92

###

Test system: U2OS
experimentalDetails: Incucyte cell viability with U2OS; also: unitless GR value; below 1 slowed growth and below 0 cell loss
Assay type: toxicity, cell-based
experimentalConditions: human, 12 h, 10 µM, compound concentration 10 uM, replicate number 1, timepoint 12 hours
Note to self: use label 1 only for Growth Rate readings below 0.5; a reading exactly at 0.5 still gets label 0.

Check out these entries, answers already filled in.
molecule	answerLabel
Cc1ccc(OCC(O)C(C)NC(C)C)c2c1CCC2.Cl (centres undefined)	label 0
Nc1nc(CC(=O)Nc2ccc(CCNC[C@H](O)c3ccccc3)cc2)cs1	label 0
CC(=O)NCC(=O)N1[C@@H]2CC[C@H]1c1ccc(Nc3ncc(C(F)(F)F)c(NC4CCC4)n3)cc12	label 1
Nc1cnc(N2CCc3cc(S(=O)(=O)Nc4c(F)cc(Cl)cc4F)cc(N4CCCC4=O)c32)nc1 [TP-020n]	label 0
CCCCCCCCc1ccc(CC[C@](N)(CO)COP(=O)(O)O)cc1	label 0

Does the reported Growth Rate of `NCCc1cn(S(=O)(=O)c2c(Cl)nc3sccn23)c2ccccc12.O=C(O)C(=O)O` stay below 0.5? label 0

Does the reported Growth Rate of `Cc1ccc(Cn2nc(C(=O)N[C@@H]3C(C)(C)[C@@H]4CC[C@@]3(C)C4)cc2-c2ccc(Cl)c(C)c2)cc1` stay below 0.5? label 0

Does the reported Growth Rate of `O=C1[C@H](Cc2ccc(O)cc2)N2C(=O)CCN(C(=O)NCc3ccccc3)[C@H]2CN1Cc1cccc2ccccc12` stay below 0.5? label 1

Does the reported Growth Rate of `Brc1c(N=C2NCCN2)ccc2nccnc12.O=C(O)C(O)C(O)C(=O)O` stay below 0.5? label 1
